Target: HA of influenza B virus B/Malaysia/2506/2004 (victoria) (influenza B virus B/Malaysia/2506/2004)
Assay: cell-based or functional assay
Property label: Neutralization (Ave IC50 ug/ml)

[
  {
    "Binder": "FBC-39 LTL (antibody, V domains shown) VH: EVQLVESGGGLVKPGGSLRLSCAASGLTFLNAWMSWVRQAPGKGLEWVGRIKSNTDGGTTDYAAPVKGRFTISRDDSKNTLYLQMSSLKTEDTAVYYCTTDGPYSDDFRSGYAARYRYFGMDVWGQGTTVTVSS VL: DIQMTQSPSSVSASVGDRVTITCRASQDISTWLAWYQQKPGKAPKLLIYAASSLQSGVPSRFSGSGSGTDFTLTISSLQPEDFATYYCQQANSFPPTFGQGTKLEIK",
    "Property label": "Neutralization (Ave IC50 ug/ml)",
    "Reported value": "0.076 µg/mL"
  }
]

Source: patent US20250263470A1
